Source: patent US20050158374A1

test summary: in vivo
test conditions: Sprague-Dawley, rat, plasma, iv, 2 mg/kg
Counter-ions that a name gives are not always drawn.
result type: concentration at 1 h (ng/mL)
Numbers only, in ng/mL.

Query string: Can you look up the measured concentration at 1 h of CN(C)C(=N)N=C(N)N [Metformin HCl, metformin hydrochloride] for me?
Result string: 35.5

---

test summary: in vivo
test conditions: Sprague-Dawley, rat, plasma, iv, 2 mg/kg
Counter-ions that a name gives are not always drawn.
result type: concentration at 2 h
Show the value, then the unit it is measured in.

Query string: Can you look up the measured concentration at 2 h of CN(C)C(=N)N=C(N)N [Metformin HCl, metformin hydrochloride] for me?
Result string: 0 ng/mL
